tested on: SR leukemia; experiment: NCI tumour cell line growth inhibition, 48 h
PARAMETER: TGI

[
  {
    "COMPOUND": "COc1cc(-c2nc(SCC(=O)Nc3ccc(C(C)=O)cc3)[nH]c(=O)c2C#N)cc(OC)c1OC",
    "TARGET OF ASSAY": "SR leukemia",
    "TGI": "> 100 µM"
  },
  {
    "COMPOUND": "CC(=O)OCC(OC(C)=O)C(OC(C)=O)C(OC(C)=O)C(=O)CNn1c(-c2ccccc2)nc2ccc(Br)cc2c1=O (stereo not given)",
    "TARGET OF ASSAY": "SR leukemia",
    "TGI": "> 100 µM"
  },
  {
    "COMPOUND": "CC(=O)c1c(O)ccc2c1CC(CC=O)O2 (stereo not given)",
    "TARGET OF ASSAY": "SR leukemia",
    "TGI": "> 100 µM"
  },
  {
    "COMPOUND": "CN1CCN(Cc2ccc(NC(=O)c3[nH]ncc3Nc3ncnc4sccc34)cc2)CC1",
    "TARGET OF ASSAY": "SR leukemia",
    "TGI": "0.73 µM"
  }
]

In the following, a different compound is considered.
// TGI value for O=C(CCC(=O)N/N=C/c1ccccc1O)N/N=C/c1ccccc1O : > 100 µM

---

Recorded TGI by entry
tested on: DMS 273 small cell lung; experiment: NCI tumour cell line growth inhibition, 48 h

Here's what some known entries look like.
[
  {
    "MOLECULE": "COC(=O)[C@H]1C=C[C@@H](C)n2c(=O)c3ccccc3c(=O)n21",
    "TARGET OF ASSAY": "DMS 273 small cell lung",
    "TGI": "> 100 µM"
  },
  {
    "MOLECULE": "COc1cc2ccc1-c1cc(ccc1O)CC1c3cc4c(cc3CCN1C)Oc1c(OC)cc3c(c1O4)C(C2)N(C)CC3 (stereo not drawn)",
    "TARGET OF ASSAY": "DMS 273 small cell lung",
    "TGI": "3.27 µM"
  }
]

Consider now this further molecule.
The measured TGI associated with CN(C)[C@@H]1C(=O)C(C(=O)NCNCCCC(=O)O)=C(O)[C@@]2(O)C(=O)C3=C(O)c4c(O)cccc4[C@@](C)(O)[C@H]3C[C@@H]12 reads > 100 µM

---

tested on: HL-60(TB) leukemia; experiment: NCI tumour cell line growth inhibition, 48 h; in the data active = GI50 below about 0.43 µM; inactive = the rest
Bench note: report the call from active, inactive

[
  {
    "MOLECULE": "C#CCOc1ccc2ncnc(Nc3ccc(NC(=O)CCl)cc3)c2c1",
    "CLASS NAME": "inactive"
  }
]

Request: Short answer needed: outcome of this test for Cc1ccccc1-n1c(/C=C\c2ccccn2)nc2ccccc2c1=O ?
Result: inactive

Request: # lookup: test call for CCOC(=O)N1C/C(=C/c2ccc(OC)cc2)C(=O)/C(=C/c2ccc(OC)cc2)C1
Result: inactive

Request: Short answer needed: outcome of this test for COc1cc(C2CC(c3ccc4c(c3)OCO4)=NN2C(C)=O)cc(OC)c1OC (stereo not given) ?
Result: active

Request: Please state the recorded outcome for this molecule: COc1ccc2[nH]c(-c3cccc(N(C)C)c3)cc(=O)c2c1
Result: active

---

test system: NCI-H460 lung
PARAMETER: GI50

Sample records with GI50:
[
  {
    "QUERY SMILES": "Cc1ccccc1-n1c(/C=C\\c2ccccn2)nc2ccccc2c1=O",
    "GI50": "9.29 µM"
  },
  {
    "QUERY SMILES": "O=C(NCCCNC(=O)OCc1ccc2c(Br)cc(Br)c(O)c2n1)OCc1ccc2c(Br)cc(Br)c(O)c2n1",
    "GI50": "> 100 µM"
  },
  {
    "QUERY SMILES": "C=CC[Se]C(=O)Cc1c(C)n(C(=O)c2ccc(Cl)cc2)c2ccc(OC)cc12",
    "GI50": "0.491 µM"
  }
]

# context switch: different compound, same GI50
Entry COc1cc(-c2nc(SCC(=O)Nc3ccc(C(C)=O)cc3)[nH]c(=O)c2C#N)cc(OC)c1OC , tested on NCI-H460 lung, has a reported GI50 of 39.1 µM

---

test system: SK-MEL-28 melanoma; experiment: NCI tumour cell line growth inhibition, 48 h
PARAMETER: TGI

Recorded TGI, per entry:
[
  {
    "COMPOUND": "CCCCCCNC(=O)Oc1ccc(/C(=C(\\C)c2ccccc2)c2ccc(OCCN3CCCCC3)cc2)cc1",
    "REPORTED": "4.41 µM"
  },
  {
    "COMPOUND": "COc1ccc(C2SC(N)=Nc3c2c(C)nn3C(=O)c2ccc(Cl)cc2)cc1 (stereo not given)",
    "REPORTED": "> 10 µM"
  },
  {
    "COMPOUND": "NC12CC3CC(C1)CC(Cl)(C3)C2",
    "REPORTED": "> 100 µM"
  },
  {
    "COMPOUND": "COc1ccc(Nc2nc(N)c(C(=O)c3ccc(OC)cc3)s2)cc1",
    "REPORTED": "> 68.6 µM"
  }
]

Let us examine a further case.
For record O=C(c1cc(Br)ccc1O)c1cc(Br)ccc1O the listed TGI is 31.1 µM

---

test system: SF-539 CNS; assay: NCI tumour cell line growth inhibition, 48 h
PARAMETER: TGI

[
  {
    "MOLECULE": "CC(=N/NC(=S)Nc1c(C)n(C)n(-c2ccccc2)c1=O)/C(C)=N\\NC(=S)Nc1c(C)n(C)n(-c2ccccc2)c1=O",
    "TGI": "> 100 µM"
  },
  {
    "MOLECULE": "CCOC(=O)CC1=NC(=Nc2cc(Cl)ccc2Cl)SC1",
    "TGI": "> 100 µM"
  },
  {
    "MOLECULE": "CC1=NN2C(=O)CC(=O)N=C2S1",
    "TGI": "> 100 µM"
  }
]

The molecule listed as NC1=CC(C(=O)c2ccncc2)c2nc3ccccc3nc21 (stereo unspecified) has a reported TGI of > 100 µM

Form: molecule = COC(=O)C1=C(c2cc(OC)c(OC)c(OC)c2)OC(c2cc(OC)c(OC)c(OC)c2)C1COC(C)=O (stereo unspecified) ; TGI = > 100 µM

---

// reported TGI per item
tested on: SN12C renal; assay: NCI tumour cell line growth inhibition, 48 h

Value (TGI, SN12C renal) for record CC(C)(C)C1CCC2(CC1)CCN(CCCN1CCOCC1)CC2 = > 100 µM

---

tested on: K-562 leukemia; assay: NCI tumour cell line growth inhibition, 48 h
PARAMETER: GI50

[
  {
    "QUERY SMILES": "Oc1ccc(Br)cc1/C=N/NC(=S)NC12CC3CC(CC(C3)C1)C2",
    "REPORTED": "1870 nM"
  }
]

Data point: COC(=O)c1c2c(c(C)[n+]([O-])c1C)C(=O)C(NCc1cccc(OC)c1)=CC2=O ; GI50 = 2980 nM

Form field GI50, entry CC[C@H](Nc1nc(N)nc(N)c1Cl)c1nc2cccc(NCc3ccc(C(=O)NO)cc3)c2c(=O)n1-c1ccccc1 : 1780 nM

Summary for this compound, O=C(NCCCNC(=O)OCc1ccc2c(Br)cc(Br)c(O)c2n1)OCc1ccc2c(Br)cc(Br)c(O)c2n1 : GI50 is > 100000 nM

The compound identified as CCOC(=O)c1c(C)n(CC(C)C)c2c1cc1oc(=O)c(=O)n3cnc2c13 registered its GI50 at 16100 nM

---

tested on: MDA-MB-435; assay: NCI tumour cell line growth inhibition, 48 h
Measured TGI, listed per entry for reference.

[
  {
    "MOLECULE": "O=C1Nc2ccccc2[C@]12C[C@H]2c1ccccn1",
    "REPORTED": "> 100 µM"
  },
  {
    "MOLECULE": "Cc1ccc(S(=O)(=O)NC(=O)NCC(=O)NCC(=O)O)cc1",
    "REPORTED": "> 100 µM"
  },
  {
    "MOLECULE": "CCOC(=O)N1C/C(=C/c2ccc(OC)cc2)C(=O)/C(=C/c2ccc(OC)cc2)C1",
    "REPORTED": "4.71 µM"
  },
  {
    "MOLECULE": "COc1cc(C)cc2c1C(=O)C(Br)=CC2=O",
    "REPORTED": "5.68 µM"
  },
  {
    "MOLECULE": "CCCCCCCCCCCCOC1C(C(COC2OC(C(O)CN3CCCCC3)C3OC(C)(C)OC23)NC(=O)Nc2ccccc2)OC2OC(C)(C)OC21 (stereo not drawn)",
    "REPORTED": "20.8 µM"
  }
]

Item: O=c1oc2cc(O)ccc2c(O)c1C(c1ccccn1)c1c(O)c2ccc(O)cc2oc1=O | TGI: > 100 µM

src = PubChem BioAssay (NCI)
